- Assay Name: Human HepG2 cell viability assay in 384 well format
- Format: toxicity, cell-based
- Set-up: dose 125 nL, time 70.5 hour; concentration not given beside the values
- Condition Description: HepG2 cells, read-out: Inhibition
Result Type: cytotoxicity at 70.5 h (%)
Numeric answer only, unit % assumed.

Consider the worked cases shown below.
Looking up `O=S(=O)(NCCCN1CC=CC1)c1cncc(Cl)c1` , I found its cytotoxicity at 70.5 h recorded as 29.6

Sure, the documented cytotoxicity at 70.5 h for `c1cc(C2CCN(Cc3nc(C4CC4)no3)CC2)[nH]n1` is -6.11

For reference, reported cytotoxicity at 70.5 h for `O=C([C@@H]1COC[C@H]2CN(C3CCCC3)C[C@H]21)N1CCCO1` stands at -1.63

---
Form field cytotoxicity at 70.5 h, entry `CCn1cc(Cn2cc(Cl)c(N)n2)c(C)n1` : -2.35

Reported cytotoxicity at 70.5 h of `Brc1cccc(-c2noc(CN3CCOCC3)n2)c1` : -2.61

cytotoxicity at 70.5 h measured on O=C(c1ccc(-n2ccnc2)nc1)N1CCN2CCCCC2C1 (stereo not drawn) = -10.4

Record `C[C@@H]1CN(Cc2cccc(F)c2)C[C@]12CCN(Cc1cccnc1)C2=O` , field cytotoxicity at 70.5 h: -10.4

The value of cytotoxicity at 70.5 h measured for the molecule CCOCCCNS(=O)(=O)c1ccc2c(c1)NC(=O)C(C)O2 (stereo not drawn) turned out to be 12.7

----------
Each item that follows carries a reported cytotoxicity at 70.5 h.
- Assay Name: Human HepG2 cell viability assay in 384 well format
- Assay type: toxicity, cell-based
- Set-up: dose 125 nL, time 70.5 hour; concentration not given beside the values
- Condition Description: HepG2 cells, read-out: Inhibition
Write down the numeric answer in % and omit the unit.

# example entries with known answers
Sample `CC(C)Cc1cc(C(=O)N2CCCN(c3cccnn3)CC2)[nH]n1` ; cytotoxicity at 70.5 h observed: -5.32

# cytotoxicity at 70.5 h of `CNc1ncc2c(n1)CN(C1CCCC1)C2=O` = -9.4

In plain terms, Cc1cc(N2CCCC(O)(CN(C)C)C2)c2cc3c(cc2n1)OCO3 (configuration not stated) has a documented cytotoxicity at 70.5 h of 0.76

response.value for `CN(C)C(=O)N1CC2(CCNCC2)c2cc(F)ccc21` (field: cytotoxicity at 70.5 h) = -8.45

Next:
# cytotoxicity at 70.5 h (compound: O=C(CCn1ccc2ccccc21)Nc1ccnn1CC1CCOC1 (configuration not stated) ) is -16.3

Entry `O=c1c(-c2ccnc(N3CCC[C@H]3CO)n2)cnc2sccn12` — recorded cytotoxicity at 70.5 h = -1.75

Reported cytotoxicity at 70.5 h of O=C(NC1CCCN(Cc2c(F)cccc2F)C1)c1cnccn1 (configuration not stated) : 1.65

Record `CC(=O)N1CCN(Cc2ccc(OCc3nccn3C)cc2)CC1` , field cytotoxicity at 70.5 h: -8.75

The compound listed as `Cc1cc(S(=O)(=O)N(CCO)C2CC2)ccc1F` shows cytotoxicity at 70.5 h equal to -2.56

Recorded cytotoxicity at 70.5 h (compound `CN1CC[C@@H]2[C@@H](CO[C@H]2CNC(=O)c2nccn2C)C1` ): -4.99

// cytotoxicity at 70.5 h value for Cc1cnn(CC2CCCN2Cc2nnc(C(C)C)o2)c1 (configuration not stated) : 23

`CCCN1CCN(C(=O)c2ccc(Cl)cn2)[C@H]2CS(=O)(=O)C[C@H]21` yielded cytotoxicity at 70.5 h of -10.4

----------
Attribute: cytotoxicity at 70.5 h
- Assay Name: Human HepG2 cell viability assay in 384 well format
- Assay type: toxicity, cell-based
- Design: dose 125 nL, time 70.5 hour; concentration not given beside the values
- Condition Description: HepG2 cells, read-out: Inhibition
Answer with a number only, understood to be in %.

Worked cases, cytotoxicity at 70.5 h given:
Form: compound = Cc1c(C(C)NC(=O)C2CCCC2)cnn1C (centres undefined) ; cytotoxicity at 70.5 h = 36.2

# cytotoxicity at 70.5 h of Cc1cc(C)nc(Nc2cc(C)nc(C3CCN(C(=O)CO)C3)n2)n1 (centres undefined) = -7.3

Could you now consider this next compound?
For record `O=C(NCCCn1cncn1)N1CCC(N2CCCCC2)CC1` the listed cytotoxicity at 70.5 h is -2.83

----------
Recorded measurements of cytotoxicity at 70.5 h, one per entry
- Assay Name: Human HepG2 cell viability assay in 384 well format
- Assay type: toxicity, cell-based
- Set-up: dose 125 nL, time 70.5 hour; concentration not given beside the values
- Condition Description: HepG2 cells, read-out: Inhibition
A number alone suffices; assume %.

Solved cases below.
The compound listed as `Cc1ccc(NC2CCN(C(=O)c3c(C)noc3C)CC2)nn1` shows cytotoxicity at 70.5 h equal to -2.81

Item: CN(C(=O)Cn1nc(-c2ccccc2Cl)ccc1=O)C1CCS(=O)(=O)C1 (configuration not stated) | cytotoxicity at 70.5 h: -18.5

The compound identified as `CCc1[nH]c(C2(N)CCCCC2)nc(=O)c1C` registered its cytotoxicity at 70.5 h at -4.64

Field cytotoxicity at 70.5 h (entry `CCN(CC)C(=O)[C@@H]1C[C@@H](NC(=O)c2ccn(C(C)(C)C)c2)CN1C` ) reads -4.81

For O=C(CN1CC(c2ccccc2)CC1=O)N1CCC(c2ncc[nH]2)CC1 (configuration not stated) the compound record lists cytotoxicity at 70.5 h as -4.48

According to the records, this compound `Cc1cc(C(=O)N2CCc3ncnc(-c4cnn(C)c4)c3CC2)c(C)o1` displays cytotoxicity at 70.5 h of -7.85

Lab note: CC(=O)NCC(=O)N1CCCC2(CCC(=O)N(CCc3c[nH]cn3)C2)C1 (configuration not stated) gave cytotoxicity at 70.5 h of 10.1

Please fill in: cytotoxicity at 70.5 h reported for `O=C(CCOc1ccccc1F)N1CCOCC1` = 44.2

CCCc1nc(CN2CCCC(Cn3cncn3)C2)no1 (configuration not stated) has a reported cytotoxicity at 70.5 h of 3.03

In plain terms, `c1csc(COC[C@H]2CCC[C@]23CN(Cc2ccoc2)CCO3)n1` has a documented cytotoxicity at 70.5 h of -9.63

Next:
# cytotoxicity at 70.5 h (compound: `CC(C)OCCCN(Cc1ccncc1)Cc1cccc(F)c1` ) is 1.37

cytotoxicity at 70.5 h reported for this compound `COCCNC(=O)Cn1cc(OCc2ccccc2)c(=O)cc1CO` : -15.3

----------
# reported cytotoxicity at 70.5 h; entries follow
- Assay Name: Human HepG2 cell viability assay in 384 well format
- Type: toxicity, cell-based
- Set-up: dose 125 nL, time 70.5 hour; concentration not given beside the values
- Condition Description: HepG2 cells, read-out: Inhibition
Expressed in %, but write only the number.

// solved cases for cytotoxicity at 70.5 h follow
Value of cytotoxicity at 70.5 h reported for the compound `Cc1nc(CCN)cc(N2CCC(O)(c3ccc(Cl)cc3)CC2)n1` is 19.3

Note to self: cytotoxicity at 70.5 h recorded for CN1CC(=O)N(c2cccc(F)c2)CC12CCN(S(=O)(=O)C1CC1)C2 (stereo unspecified) was -2.84

Value of measured cytotoxicity at 70.5 h for the entry `O=C(N1CCN(CCO)CC1)C1(O)Cc2ccccc2C1` : -4.44

For this compound ( `Cc1nn2cc(CCNC(=O)c3cc(C(C)C)no3)nc2s1` ), measured cytotoxicity at 70.5 h is 12.6

Consider CN(C)c1ncccc1CNC(=O)N1CCCC1c1cccs1 (stereo unspecified) . Its measured cytotoxicity at 70.5 h is 1.79

Entry CCCN(Cc1cnn(C)c1)CC1CCCN(S(C)(=O)=O)C1 (stereo unspecified) , cytotoxicity at 70.5 h reported as 23.4

get_value(item= `CC1CCN(CC2CCN(C(=O)c3c[nH]c4ncccc34)CC2)CC1` , readout=cytotoxicity at 70.5 h) returns -19.4

`COc1ncccc1CNC(=O)c1c[nH]c(=O)c(Br)c1` yielded cytotoxicity at 70.5 h of -4.91

Continuing:
compound CCC(CC)c1cc(CNC(=O)N2CCCC(N(C)C)C2)on1 (stereo unspecified) , cytotoxicity at 70.5 h observed: -9.56

Entry CN(Cc1ccco1)C(=O)NC1CCCN(c2ncccn2)C1 (stereo unspecified) — recorded cytotoxicity at 70.5 h = 8.71

The reported cytotoxicity at 70.5 h of the compound COc1cc(CNC(C)c2ccc(F)c(F)c2)cc2c1OCCO2 (stereo unspecified) was 1.07

Record summary for `CC(C)Cn1cncc1CNC(=O)c1cccc(-n2cnnc2)c1` : reported cytotoxicity at 70.5 h = 8.85

The recorded cytotoxicity at 70.5 h for `COc1c(C)cnc(CN(C)C(=O)Nc2ccc3c(c2)CCO3)c1C` is 19

# compound CCCC(C)(C)NC(=O)c1ccc(CC2CC(=O)NC2=O)cc1 (stereo unspecified) ; its cytotoxicity at 70.5 h = 0.713

Lab note: `COc1cc(CNCc2c(C)nn(CC(C)C)c2N(C)C)ccn1` gave cytotoxicity at 70.5 h of 27.3

Form field cytotoxicity at 70.5 h, entry `CCOc1ccnc(N2CCN(C(=O)c3cn[nH]c3CC)CC2)n1` : -3.19

Measured cytotoxicity at 70.5 h, `COc1ccc(CN2C[C@@H]3OCC(=O)N(Cc4nccn4C)[C@@H]3C2)cc1` : -3.1

Input `N#CC1(C(=O)N2CCN(Cc3cscn3)CC2)CCCC1` . Output cytotoxicity at 70.5 h: 14.2

Please fill in: cytotoxicity at 70.5 h reported for `CCCn1[nH]cc/c1=N\C(=O)CN1CCc2cnc(CC)nc2C1` = 2.85

For reference, reported cytotoxicity at 70.5 h for CC(=O)N1CCC(C(=O)N2CCOC(CC3CCCCC3)C2)CC1 (stereo unspecified) stands at 24.3

Noted for Clc1ccc(C2NCCc3cc4c(cc32)OCCO4)cc1 (stereo unspecified) : its cytotoxicity at 70.5 h reads 32.9

So for CCC(O)Cn1cc(C2=CCN(Cc3ccc(OC)cc3)CC2)cn1 (stereo unspecified) , the logged cytotoxicity at 70.5 h turned out to be -11.9

cytotoxicity at 70.5 h in this record for `O=C(Nc1cnc2n1CCCC2)c1cccc(NC(=O)C2CCCC2)c1` : -8.35

Value of cytotoxicity at 70.5 h reported for the compound `Cc1ccnn1CCC(=O)N(Cc1ccsc1)CC(C)C` is -2.24

`CN(Cc1nc2ccsc2c(=O)[nH]1)CC1CCCCC1` has a reported cytotoxicity at 70.5 h of -6.1
